# Test system: Zika virus NS2B-NS3 protease (linked construct)
# EXPERIMENTAL DETAILS: Primary screen NINDS Rhodamine qHTS for Zika virus inhibitors (AID 1347160); further: nearly all actives have a fitted effect of over 55% in size
# EXPERIMENTAL SETUP: purified NS2B-NS3 protease, Rhodamine110 substrate fluorescence; series mostly up to 57.1 µM
Inconclusive results are not listed. Activity calls are given as the source filed them. The call rests on the fitted dose curve; in most records, active means well fitted inhibition curve with a large enough effect; inconclusive means small, poorly fitted or top-dose-only effect; inactive means no such curve, though single readings can be large or run the other way. Where a SMILES comes first, the peptide text is derived from it. [ ]: non-standard residue; d: D form. ξ: configuration not given here. ξPhe(βξ-Me) = CC(c1ccccc1)C(N)C(=O)O; GABA = NCCCC(=O)O
Choose the fitting class; nothing outside active, inactive is accepted.

See these solved cases before continuing.
compound=O=C(c1ccc(F)cc1)C1CCN(CCn2c(=O)nc3n(c2=O)CCCC3)CC1 class_label=inactive
compound=CCc1c(CC(N)=O)c2cc(OCCCP(=O)(O)O)ccc2n1Cc1ccccc1 class_label=inactive
compound=CCOc1c2c(c(OCC)c3ccccc13)C(=O)N(c1ccc(CC(=O)NS(=O)(=O)c3ccccc3)cc1)C2 class_label=active
compound="CC(C)CC1NC(=O)C(C(C)c2ccccc2)NC(=O)C(C(C)C)NC(=O)C(C)NC(=O)CCCNC(=O)C(Cc2c[nH]c3ccccc23)NC(=O)C(C)NC1=O (stereo not drawn) (cyclo([GABA]AV[ξPhe(βξ-Me)]LAW); configuration not given here)" class_label=inactive
compound=C[C@@H]1O[C@@H](O[C@@H]2[C@@H](O)[C@@H](O)[C@H](O[C@@H]3[C@@H](O)[C@@H](O[C@]4(CO)O[C@H](CO)[C@@H](O)[C@@H]4OC(=O)/C=C/c4ccc(O)cc4)O[C@H](CO)[C@H]3OC(=O)/C=C/c3ccc(O)cc3)O[C@H]2C)[C@H](O)[C@H](O)[C@H]1O class_label=inactive
compound=CC(=O)O[C@@H]1[C@H]2[C@@H](OC(=O)c3ccccc3)[C@@H](C)C[C@]2(O)[C@H](OC(C)=O)[C@@]2(C)[C@@H]3CC(C)(C)C(=O)[C@]3(OC(C)=O)C[C@@]12C class_label=inactive
compound=CNC(=O)c1ccc2cc([C@@]3(O)CCn4cncc43)ccc2c1 class_label=inactive
compound=Cc1c(-c2ccnn2C)cc(C(=O)NCc2ccc(S(C)(=O)=O)cn2)c(=O)n1-c1cccc(C(F)(F)F)c1 class_label=inactive

Exercise: Any idea what this test logged for N[C@@H](CC(=O)N1CCn2c(nnc2C(F)(F)F)C1)Cc1[nH]nc2c(F)c(F)ccc12 ?
Key: inactive

Exercise: Could you kindly confirm the outcome this assay logged for Cc1cc(C)cc(NC(=O)Cc2ccc(OC(C)(C)C(=O)O)cc2)c1 ?
Key: inactive

---

# EXPERIMENTAL DETAILS: qHTS assay to identify small molecule inhibitors of chordoma cells - UCH-2 (AID 1259356)
# EXPERIMENTAL SETUP: UCH-2 chordoma viability, CellTiter-Glo ATP luminescence, 48 h; series mostly up to 46.1 µM
Results filed as inconclusive are left out. The source made the active and inactive calls. Calls follow the shape of the dose curve; as a rule, active = well fitted cell-killing curve with a large enough effect; inconclusive = small, poorly fitted or top-dose-only effect; inactive = flat fitted curve, though single readings scatter. Non-standard residues stand in square brackets, D forms with d. Residues, ends and D or L forms follow the SMILES beside them. Orn = NCCC[C@H](N)C(=O)O
Result category, one only: active, inactive

Completed entries (count: 5):
molecule=C[C@]12CCC(=O)C=C1CC[C@@H]1[C@@H]2[C@@H](O)C[C@@]2(C)[C@H]1CC[C@]2(O)C(=O)COP(=O)(O)O class_label=inactive
molecule=O=C(O)CCC(=O)C(=O)O class_label=inactive
molecule=Nc1ccn([C@H]2CS[C@@H](CO)O2)c(=O)n1 class_label=inactive
molecule=CC(C)(C)NC(=O)[C@@H]1C[C@@H]2CCCC[C@@H]2CN1C[C@@H](O)[C@H](Cc1ccccc1)NC(=O)[C@H](CC(N)=O)NC(=O)c1ccc2ccccc2n1 class_label=inactive
molecule="CC(C)C[C@@H]1NC(=O)[C@H](CCCN)NC(=O)[C@H](C(C)C)NC(=O)[C@@H]2CCCN2C(=O)[C@@H](Cc2ccccc2)NC(=O)[C@H](CC(C)C)NC(=O)[C@H](CCCN)NC(=O)[C@H](C(C)C)NC(=O)[C@@H]2CCCN2C(=O)[C@@H](Cc2ccccc2)NC1=O (cyclo(V[Orn]L[dF]PV[Orn]L[dF]P))" class_label=active

Exercise: Fill in: this test's call for CC(C)(C)C1(O)CCN2CC3c4ccccc4CCc4cccc(c43)C2C1 (stereo not given) is ___
Key: inactive

Exercise: State the result this test recorded for CCCC(=O)Nc1ncnc2c1ncn2[C@@H]1O[C@@H]2COP(=O)(O)O[C@H]2[C@H]1OC(=O)CCC .
Key: inactive

Exercise: Record lookup: outcome of this test for C=C1C(=CC=C2CCC[C@@]3(C)[C@@H]2CC[C@H]3[C@H](C)CCCC(C)C)C[C@@H](O)C[C@@H]1O ?
Key: inactive

Exercise: I'd appreciate the recorded outcome for CC1=C(/C=C/C(C)=C/C=C/C(C)=C/C=C/C=C(C)/C=C/C=C(C)/C=C/C2=C(C)CCCC2(C)C)C(C)(C)CCC1 from this test.
Key: inactive

Exercise: # lookup: test call for Cc1c(C)c2c(c(C)c1O)CC[C@@](C)(CCC[C@H](C)CCC[C@H](C)CCCC(C)C)O2
Key: inactive

---

# Tested on: CRL-7250
# EXPERIMENTAL DETAILS: Cytotoxic Profiling of Annotated Libraries Using Quantitative High-Throughput Screening (AID 1296008); further: on the % scale 0 is the no-effect control and ±100 the full control effect; nearly all actives have a fitted effect of over 60% in size
# EXPERIMENTAL SETUP: Five cell lines viability, CellTiter-Glo ATP luminescence, 48-72 h; active compounds read low
Results filed as inconclusive are left out. *1 amine or outer side, *2 acyl side, *3 side chain or, on linkers, in order; H or OH if unused. Where a SMILES comes first, the peptide text is derived from it. Bridges are numbered along the chain shown (N, C = ends). X6 = O=C(CCC[*:2])[*:1]
READOUT TYPE: max response (%)
Give a bare numeral; the unit % is implied.

The following molecules have reported results that may help.
molecule=CCOC(=O)c1c(C)nn(-c2cccc([N+](=O)[O-])c2)c1C unit_descriptor=% value_observed=-7.75
molecule="CC1=CCC2C(C)(CO)CCCC2(C)C1CC12OC1C(O)C(CO)=CC2O (stereo unspecified)" unit_descriptor=% value_observed=4.27
molecule="CC1(C)CCCC2(C)C1C(O)C=C(CO)C2(O)C(=O)O (stereo unspecified)" unit_descriptor=% value_observed=3.48

Looking up CC(C)C(=O)c1cn(CC(=O)COc2ccc(Oc3ccccc3)cc2)c2ccc(C(=O)O)cc12 , I found its max response recorded as 3.02

response.value for CC[C@H](C)[C@@H]1NC(=O)[C@H](Cc2ccc(OC)cc2)NC(=O)CCCSC[C@@H](C(=O)N2CCC[C@H]2C(=O)N[C@@H](CC(C)C)C(=O)NCC(N)=O)NC(=O)[C@H](CC(N)=O)NC(=O)[C@H](CCC(N)=O)NC1=O (Y(Me)IQNCPLG-NH2; linker N-5 via X6) (field: max response) = -0.379

What the record says about CC(=O)N1c2ccccc2C2(O)CC3C(=O)NC(CC(C)C)C(=O)N3C12 (stereo unspecified) : max response is 1.79

---

# System: CP269
# EXPERIMENTAL DETAILS: qHTS profiling for inhibitors of Plasmodium falciparum proliferation (AID 504749); further: nearly all actives have a fitted effect of over 60% in size
# EXPERIMENTAL SETUP: P. falciparum in erythrocytes, SYBR Green DNA, 72 h; series mostly up to 28.7 µM
Results filed as inconclusive are left out. The source made the active and inactive calls. Calls come from the whole dose curve; as a rule, active = well fitted inhibition curve with a large enough effect; inconclusive = small, poorly fitted or top-dose-only effect; inactive = flat fitted curve, though single readings scatter.
Select the matching outcome among true (1) (active), false (0) (inactive)

compound=Nc1ncnc2c1ncn2[C@@H]1O[C@H](COP(=O)(O)OP(=O)(O)OP(=O)(O)O)[C@@H](O)[C@H]1O class_label="false (0)"
compound=CC1(C)S[C@@H]2[C@H](NC(=O)[C@@H](NC(=O)N3CCNC3=O)c3ccccc3)C(=O)N2[C@H]1C(=O)O class_label="false (0)"
compound="CCCCC(C)(O)C/C=C/[C@H]1[C@H](O)CC(=O)[C@@H]1CCCCCCC(=O)OC (some centres undefined)" class_label="false (0)"
compound=O=C(O)c1cc(=O)c2c3nc4ccccc4oc-3cc(=O)c2[nH]1 class_label="false (0)"
compound=CC1=C(/C=C/C(C)=C/C=C/C(C)=C/C=C/C=C(C)/C=C/C=C(C)/C=C/C2=C(C)CCCC2(C)C)C(C)(C)CCC1 class_label="false (0)"

Exercise: Please share the test call associated with Cc1ccccc1 .
Key: false (0)

Exercise: Please let me know the test result on file for COCC(=O)Nc1cc(Sc2ccccc2)ccc1N=C(NC(=O)OC)NC(=O)OC .
Key: false (0)

Exercise: Would you mind telling me which call this test gave O=CCCCC=O ?
Key: false (0)

Exercise: What classification did CCCCCCCCCCCC[n+]1ccc2ccccc2c1 end up with in this test?
Key: true (1)

Exercise: What did this assay record as the result for CC1=C(/C=C/C(C)=C/C=C/C(C)=C/C=C/C=C(C)/C=C/C=C(C)/C=C/C2=C(C)C(=O)CCC2(C)C)C(C)(C)CCC1=O ?
Key: false (0)

Exercise: Identify the outcome logged in this assay for the compound shown: CC(O)CO (centres undefined)
Key: false (0)

Exercise: Please let me know the test result on file for CN(C)CCCN1c2ccccc2C(C)(C)c2ccccc21 .
Key: false (0)

Exercise: Would you mind telling me which call this test gave CCCC(=O)Nc1ncnc2c1ncn2C1OC2COP(=O)(O)OC2C1OC(=O)CCC (centres undefined) ?
Key: false (0)

Exercise: What is the recorded call for this compound in the test? CCOC(C)=O
Key: false (0)

Each recorded value in this set is attributed to PubChem BioAssay (NCATS).
